biological target: MAGL (Mus musculus); construct: mouse brain membrane fraction or cell lysates for mouse assays; from tissue; test: In vitro competitive activity-based protein profiling, mouse MAGL; assay type: biochemical; conditions: 1 μM, read-out: MAGL % inh. 1 μM (mouse)
inhibition at 1 µM values for the molecules below.

Answered examples (4):
CN(Cc1cc(C(F)(F)F)ccc1Cl)[C@H]1C[C@@H]2CN(C(=O)n3cc(C(N)=O)cn3)C[C@@H]2C1 [Example 214] ... ≥ 75%
Cc1cc(-c2ccccc2)ccc1CN1CCC2(CCN(C(=O)n3cc(Cl)cn3)C2)C1 (centres unmarked) [Example 130] ... ≥ 75%
O=C(c1cnn(C(=O)N2CC3CN(Cc4cc(Cl)cc(C(F)(F)F)c4)CC3C2)c1)N1CCOCC1 (centres unmarked) [Example 10] ... ≥ 75%
COc1cccc(CN2CC3CN(C(=O)n4cc(C(F)(F)F)cn4)CC3C2)c1 (centres unmarked) [Example 142] ... ≥ 75%

Now for another entry.
**Q:** inhibition at 1 µM lookup needed for CN(Cc1cccc(Oc2cccnc2)c1)[C@H]1C[C@@H]2CN(C(=O)n3cc(Cl)cn3)C[C@@H]2C1 [Example 163] , thanks.
**A:** ≥ 75%

====

molecular target: MAGL (Mus musculus, UniProt O35678); construct: mouse brain membrane fraction or cell lysates for mouse assays; from tissue; assay: In vitro competitive activity-based protein profiling, mouse MAGL; format: biochemical
Sequence (O35678 whole entry): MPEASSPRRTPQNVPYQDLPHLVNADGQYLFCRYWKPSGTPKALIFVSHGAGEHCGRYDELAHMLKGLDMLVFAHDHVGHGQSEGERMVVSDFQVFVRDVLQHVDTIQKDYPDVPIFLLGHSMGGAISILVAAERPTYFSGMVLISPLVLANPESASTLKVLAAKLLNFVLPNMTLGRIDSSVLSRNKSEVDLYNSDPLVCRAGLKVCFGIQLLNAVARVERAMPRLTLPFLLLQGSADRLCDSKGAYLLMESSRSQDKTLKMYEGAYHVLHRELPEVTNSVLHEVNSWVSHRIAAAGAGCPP
pIC50: −log10 of the molar value.
endpoint label: pIC50

Answered examples (5):
O=C(N1CCC2(CCN(Cc3ccc(N4CCOCC4)cc3)C2)C1)n1cc(Cl)cn1 (stereo not drawn) [Example 136] ... 6.00 to 7.00
O=C(N1CCC2(CCN(Cc3cccc(Cl)c3)C2)C1)n1cc(Cl)cn1 (single isomer, unassigned) [Example 132] ... 6.00 to 7.00
CC(=O)N1CCN(c2cc(C(C)C)ccc2CN2CC3CN(C(=O)n4cc(Cl)cn4)CC3C2)CC1 (stereo not drawn) [Example 109] ... ≥ 7.00
CNC(=O)c1cnn(C(=O)N2C[C@H]3C[C@@H](N(C)Cc4ccc(C(F)(F)F)cc4)C[C@H]3C2)c1 [Example 54] ... 6.00 to 7.00
CNC(=O)c1cnn(C(=O)N2CC3CN(Cc4cccc(C(F)(F)F)c4)CC3C2)c1 (stereo not drawn) [Example 24] ... ≥ 7.00

**Q:** Please state recorded pIC50 (tested on MAGL (Mus musculus, UniProt O35678)) of O=C(N1CC2CN(Cc3ccc(CN4CCOCC4)cc3)CC2C1)n1cc(Cl)cn1 (stereo not drawn) [Example 122]
**A:** 6.00 to 7.00

**Q:** Further, for CNC(=O)c1cnn(C(=O)N2CC3CN(Cc4ccc(C(F)(F)F)cc4)CC3C2)c1 (stereo not drawn) [Example 19] ?
**A:** 6.00 to 7.00

**Q:** Further, for O=C(N1CCC2(CCN(Cc3ccc(F)cc3)C2)C1)n1cc(C(F)(F)F)cn1 (stereo not drawn) [Example 166] ?
**A:** 6.00 to 7.00

**Q:** Further, for O=C(N1C[C@H]2C[C@@H](NCc3ccc(Cl)cc3)C[C@H]2C1)n1cc(Cl)cn1 [Example 71] ?
**A:** 6.00 to 7.00

**Q:** Further, for O=C(N1CCC2(CCN(Cc3ccc(Cl)c(Cl)c3)C2)C1)n1cc(Cl)cn1 (single isomer, unassigned) [Example 139] ?
**A:** 6.00 to 7.00

**Q:** Further, for Cc1ccccc1CN1CC2CN(C(=O)n3cc(C(F)(F)F)cn3)CC2C1 (stereo not drawn) [Example 153] ?
**A:** ≥ 7.00

**Q:** Further, for Cc1cc(-c2ccccc2)ccc1CN1CC2CN(C(=O)n3cc(Cl)cn3)CC2C1 (stereo not drawn) [Example 121] ?
**A:** ≥ 7.00

**Q:** Further, for O=C(N1CCC2(CCN(Cc3cccc(C(F)(F)F)c3)C2)C1)n1cc(C(F)(F)F)cn1 (stereo not drawn) [Example 172] ?
**A:** ≥ 7.00

**Q:** Further, for CN(Cc1cccc(Oc2cccnc2)c1)[C@@H]1C[C@@H]2CN(C(=O)n3cc(Cl)cn3)C[C@@H]2C1 [Example 165] ?
**A:** 6.00 to 7.00
